# TEST METHOD NOTES: Evaluation of light fastness-1 (OD value of printed portion after 100 hours xenon fadeometer)
# Format: physicochemical
# EXPERIMENTAL SETUP: ink prepared as in Example 1 from the salt named in the row; OD value of printed portion after 100 hours xenon fadeometer
READOUT TYPE: (A)-1 light fastness-1

Worked examples, 4 molecules total:
MOLECULE	RESULT
Cc1c(N=Nc2cc(C(=O)O)ccc2C(=O)O)c(O)n(CCNc2nc(O)nc(NCCn3c(O)c(N=Nc4cc(C(=O)O)ccc4C(=O)O)c(C)c(C#N)c3=O)n2)c(=O)c1C#N [Compound 294]	⊚
Cc1c(N=Nc2cccc(C(=O)O)c2C(=O)O)c(O)n(C(=O)O)c(=O)c1C#N [compound 46]	⊚
Cc1c(N=Nc2cc(C(=O)O)ccc2C(=O)O)c(O)n(-c2cc(S(=O)(=O)O)cc(S(=O)(=O)O)c2)c(=O)c1C#N [compound 142]	⊚
Cc1c(N=Nc2cc(C(=O)O)ccc2C(=O)O)c(O)n(CCCNc2nc(NCCn3c(O)c(N=Nc4cc(C(=O)O)ccc4C(=O)O)c(C)c(C#N)c3=O)nc(NCCn3c(O)c(N=Nc4c(C(=O)O)cccc4C(=O)O)c(C)c(C#N)c3=O)n2)c(=O)c1C#N [Compound 274]	⊚

Pending molecule:
-- ask State, in one line, measured (A)-1 light fastness-1 of Cc1c(N=Nc2cccc(C(=O)O)c2C(=O)O)c(O)n(CCNC(=O)c2cc(C(=O)O)c(C(=O)NCCn3c(O)c(N=Nc4cccc(C(=O)O)c4C(=O)O)c(C)c(C#N)c3=O)cc2C(=O)O)c(=O)c1C#N [Compound 293]
-- reply ⊚

Values from patent US20040231558A1
